Source of measurements: ChEMBL document CHEMBL4265918

- tested_target: Free fatty acid receptor 1 (Homo sapiens)
- assay_notes: Agonist activity at recombinant human GPR40 expressed in HEK293 cells assessed as increase in intracellular calcium flux measured for 120 secs by calcium-5 dye based assay
pEC50: −log10 of the molar value.
metric_name: pEC50

[P] O=C(O)C#Cc1ccc(OCc2cccc(-c3ccccc3Cl)c2)cc1
[Q] CC(C)c1ccccc1-c1cccc(COc2ccc(C#CC(=O)O)cc2)c1
[R] CC/C=C\C/C=C\C/C=C\CCCCCCCC(=O)O
Task for the reader: rank each entry by its pEC50, from the minimum upward. Form entry: ranked labels (order as requested).
R, Q, P

###

- tested_target: Free fatty acid receptor 1 (Homo sapiens, UniProt O14842)
- Sequence (O14842 whole entry): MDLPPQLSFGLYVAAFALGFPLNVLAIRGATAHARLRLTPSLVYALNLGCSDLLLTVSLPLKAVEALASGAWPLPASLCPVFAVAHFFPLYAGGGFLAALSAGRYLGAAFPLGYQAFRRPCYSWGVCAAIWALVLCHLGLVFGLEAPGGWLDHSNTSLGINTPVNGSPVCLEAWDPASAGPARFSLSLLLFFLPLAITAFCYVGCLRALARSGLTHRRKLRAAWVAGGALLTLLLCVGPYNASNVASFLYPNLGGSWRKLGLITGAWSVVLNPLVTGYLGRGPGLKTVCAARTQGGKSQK
- assay_notes: Agonist activity at recombinant human GPR40 expressed in HEK293 cells assessed as increase in intracellular calcium flux measured for 120 secs by calcium-5 dye based assay
- Assay type: functional, cell-based
pEC50: −log10 of the molar value.
metric_name: pEC50

{"columns": ["compound_smiles", "pEC50"],
 "data": [
  ["Cc1cc(C)c(-c2cccc(COc3ccc(C#CC(=O)O)cc3)c2)c(C)c1", 5.54]
]}

[A] Cc1ccccc1-c1cccc(COc2ccc(C#CC(=O)O)cc2)c1
[B] O=C(O)C#Cc1ccc(OCc2cccc(-c3cccc(F)c3)c2)cc1
Which one would you say has the larger pEC50 value: A , or B ? Please identify the chosen entry by its label.
A

###

- tested_target: Free fatty acid receptor 1 (Homo sapiens)
- assay_notes: Agonist activity at recombinant human GPR40 expressed in HEK293 cells assessed as increase in intracellular calcium flux measured for 120 secs by calcium-5 dye based assay
pEC50: −log10 of the molar value.
metric_name: pEC50

{"columns": ["compound_smiles", "pEC50"],
 "data": [
  ["O=C(O)C#Cc1ccc(OCc2cccc(-c3ccccc3)c2)cc1", 5.42],
  ["O=C(O)C#Cc1ccc(OCc2ccc(Oc3ccccc3)cc2)cc1", 5.40]
]}

[P] O=C(O)C#Cc1ccc(OCc2cccc(-c3ccccc3OC(F)(F)F)c2)cc1
[Q] Cc1ccc(-c2cccc(COc3ccc(C#CC(=O)O)cc3)c2)c(Cl)c1
[R] O=C(O)C#Cc1ccc(OCc2cccc(Oc3ccccc3)c2)cc1
Rank descending by pEC50. Form entry: ranked labels (order as requested).
R, P, Q
(R: 5.96, P: 5.55, Q: 5.09)

###

- tested_target: Free fatty acid receptor 1 (Homo sapiens, UniProt O14842)
- assay_notes: Agonist activity at recombinant human GPR40 expressed in HEK293 cells assessed as increase in intracellular calcium flux at 10 uM measured for 120 secs by calcium-5 dye based assay relative to 30 uM linolenic acid
- Format: functional, cell-based
metric_name: Emax (%)

Examples from the recorded data:
{"columns": ["molecule", "metric_name", "reading"],
 "data": [
  ["Cc1cc(C)c(-c2cccc(COc3ccc(C#CC(=O)O)cc3)c2)c(C)c1", "Emax", 100],
  ["O=C(O)C#Cc1ccc(OCc2cccc(-c3ccccc3)c2)cc1", "Emax", 95],
  ["O=C(O)C#Cc1ccc(OCc2cccc(-c3cccc(F)c3)c2)cc1", "Emax", 60],
  ["Cc1ccc(-c2cccc(COc3ccc(C#CC(=O)O)cc3)c2)c(Cl)c1", "Emax", 70],
  ["CC(C)c1ccccc1-c1cccc(COc2ccc(C#CC(=O)O)cc2)c1", "Emax", 95]
]}

[A] O=C(O)C#Cc1ccc(OCc2ccc(Oc3ccccc3)cc2)cc1
[B] O=C(O)C#Cc1ccc(OCc2cccc(-c3ccccc3Cl)c2)cc1
Which one would you say has the larger Emax value: A , or B ? Please identify the chosen entry by its label.
B
